Listed binders paired with reported S/N
Molecular target: T1, hVEGF-A (8-109) (human, UniProt P15692 214-315)
T1 construct: residue numbers count on mature VEGF-A; dimer
T1 sequence (looked up): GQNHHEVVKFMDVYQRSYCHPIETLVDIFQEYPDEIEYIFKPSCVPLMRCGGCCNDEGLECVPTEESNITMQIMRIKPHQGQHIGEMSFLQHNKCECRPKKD
Experiment: spot phage ELISA
Measured property: S/N

> print(dat)
                                     binder  measured
1  GCNIMLPFWGCGTNFLCLAGCVCQYYQSCG (designed binder) [VEGF_CKP9.54.31]      32.5
2  GCQDPKLNWAVYCKQDSDCLAGCVCQLFNSCG (designed binder) [VEGF_CKP7.88]       7.7
3  GCNLMHPFWGCKQDSDCLAGCVCHWYQSCG (designed binder) [VEGF_CKP9.51]        11
4  GCNIMLPFWGCQADYACLAGCVCQYYQSCG (designed binder) [VEGF_CKP9.54.14]      23.5
5  GCQLLEPMWGCKQDSDCLAGCVCHWYNSCG (designed binder) [VEGF_CKP9.9]      19.7
6  GCQLMHPFWGCKQDSDCLAGCVCHWYRSCG (designed binder) [VEGF_CKP8]      59.4
7  GCKLLQPMWGCKQDSDCLAGCVCRWYQSCG (designed binder) [VEGF_CKP9.14]      30.1

Data origin: patent US20230174596A1
